system under test: Plk1-Flag-His6 tag fusion enzyme (Human Plk1) (Homo sapiens, UniProt P53350)
Sequence (P53350 whole entry, the tested form may be a part): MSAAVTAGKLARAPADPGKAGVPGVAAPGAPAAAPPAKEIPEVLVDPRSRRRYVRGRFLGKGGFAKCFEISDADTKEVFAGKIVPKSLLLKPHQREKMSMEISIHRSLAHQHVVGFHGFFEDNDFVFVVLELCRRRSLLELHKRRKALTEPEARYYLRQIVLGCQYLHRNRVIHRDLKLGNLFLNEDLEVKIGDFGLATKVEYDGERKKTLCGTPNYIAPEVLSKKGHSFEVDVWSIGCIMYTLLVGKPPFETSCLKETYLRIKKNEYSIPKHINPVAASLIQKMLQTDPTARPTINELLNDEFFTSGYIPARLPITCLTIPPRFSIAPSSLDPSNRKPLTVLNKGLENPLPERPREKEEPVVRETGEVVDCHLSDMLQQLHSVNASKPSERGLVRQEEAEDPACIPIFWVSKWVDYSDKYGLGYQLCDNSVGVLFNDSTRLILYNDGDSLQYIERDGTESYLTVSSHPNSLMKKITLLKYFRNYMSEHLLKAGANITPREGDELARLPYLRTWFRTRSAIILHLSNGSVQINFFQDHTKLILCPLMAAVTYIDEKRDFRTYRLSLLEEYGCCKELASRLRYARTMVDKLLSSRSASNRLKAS
experiment description: Plk1 Inhibition Assay
recorded conditions: 5.0 μM ATP, GST-Cdc25c (1-206) substrate, 60 min room temperature; MSR 3.6; read-out: Plk1 IC50 (absolute IC50)
From the text: Human Plk1 cDNA, which may be obtained from a number of sources, such as Incyte (accession number: NM_005030), may be directly linked at one of its termini with a polynucleotide sequence expressing a His6 tag, such as the C-terminal FLAG-His6 tag, and inserted into an appropriate expression vector, such as a pFastBac™ vector (Invitrogen) and transfected into an appropriate system, such as baculovirus similar to what has been reported by Yue-Wei Qian, et al., Science 282, 1701 (1998) for xPlkk1. […]
measure: IC50

q: What IC50 value was documented for this compound, O=C1NCCN1CCNc1ncc(Cl)c(-c2cc3cccc(-c4cc(F)ncc4Cl)c3s2)n1 [Example 13] ?
a: ~23 nM
